The measured values listed here are drawn from patent US7112590B2.

Provide the recorded melting point for the entries that follow.

Req: What melting point value was documented for this molecule, CC(C)(C)OC(=O)N[C@H](Cc1ccccc1)C(=O)N1CCC[C@H]1C(=O)NC1CCc2nc(N)ncc2C1 (stereo partly shown) [Example 7] ?
Resp: 110 to 113 °C

Req: Name the recorded melting point for Cl.Cl.N[C@H](C(=O)N1CCC[C@H]1C(=O)NC1CCc2n[nH]cc2C1)C(c1ccccc1)c1ccccc1 (stereo partly shown) .
Resp: 195 to 198 °C

Req: Param item = Cl.Cl.Nc1nc2c(s1)CC(NC(=O)[C@@H]1CCCN1C(=O)[C@H](N)Cc1ccc(Cl)c(Cl)c1)CC2 (stereo partly shown) ; retrieve measured melting point.
Resp: 166 to 169 °C

Req: Looking for the measured melting point of Cl.N[C@H](Cc1ccc(Cl)c(Cl)c1)C(=O)N1CCC[C@H]1C(=O)NCC1CCc2n[nH]cc2C1 (stereo partly shown) , can you help?
Resp: 145 to 148 °C

Req: Look up melting point: Cl.Cl.N[C@@H](C(=O)N1CCC[C@H]1C(=O)NC1CCc2n[nH]cc2C1)C(c1ccccc1)c1ccccc1 (stereo partly shown)
Resp: 190 to 193 °C

Req: Find the recorded melting point belonging to Cl.Cl.Nc1ncc2c(n1)CCC(NC(=O)[C@@H]1CCCN1C(=O)[C@H](N)C(c1ccccc1)c1ccccc1)C2 (stereo partly shown) and report it.
Resp: 199 to 202 °C

Req: What value of melting point has been reported for the following molecule? Nc1nc2c(s1)CC(NC(=O)[C@@H]1CCCN1C(=O)[C@@H](CC1CCCCC1)NS(=O)(=O)Cc1ccccc1)CC2 (stereo partly shown) [Example 28]
Resp: 127 to 130 °C
